ASSAY_METHOD_TEXT: Tissue distribution after single IP or PO dose
Type: in vivo, BALB/c mice
CONDITIONS_USED: female, BALB/c, mouse, heart, po, 10 mg/kg
MEASURED_ENDPOINT: k el (s⁻¹)

INSERT INTO results (structure, measured_endpoint, data_value) VALUES
  ('CCn1c2ccccc2c2cc(-n3nncc3-c3ccccc3)ccc21', 'k el', 0.000144);

* * *

ASSAY_METHOD_TEXT: Tissue distribution after single IP or PO dose
Assay type: in vivo, BALB/c mice
CONDITIONS_USED: female, BALB/c, mouse, liver, po, 10 mg/kg
MEASURED_ENDPOINT: k el (s⁻¹)

INSERT INTO results (compound, measured_endpoint, data_value) VALUES
  ('CCn1c2ccccc2c2cc(-n3nncc3-c3ccccc3)ccc21 [MBQ-167]', 'k el', 0.000119);

* * *

ASSAY_METHOD_TEXT: Tissue distribution after single IP or PO dose
Assay type: in vivo, BALB/c mice
CONDITIONS_USED: female, BALB/c, mouse, spleen, po, 10 mg/kg
MEASURED_ENDPOINT: half-life (h)

INSERT INTO results (compound, result_units, data_value) VALUES
  ('CCn1c2ccccc2c2cc(-n3nncc3-c3ccccc3)ccc21 [MBQ-167]', 'h', 11);

* * *

ASSAY_METHOD_TEXT: Tissue distribution after single IP or PO dose
Type: in vivo, BALB/c mice
CONDITIONS_USED: female, BALB/c, mouse, spleen, po, 10 mg/kg
MEASURED_ENDPOINT: tissue uptake (%ID/g)

INSERT INTO results (structure, measured_endpoint, result_units, data_value) VALUES
  ('CCn1c2ccccc2c2cc(-n3nncc3-c3ccccc3)ccc21', 'tissue uptake', '%ID/g', 0.26);

* * *

ASSAY_METHOD_TEXT: Tissue distribution after single IP or PO dose
Assay type: in vivo, BALB/c mice
CONDITIONS_USED: female, BALB/c, mouse, heart, po, 10 mg/kg
MEASURED_ENDPOINT: MRT inf (h)

INSERT INTO results (compound, measured_endpoint, result_units, data_value) VALUES
  ('CCn1c2ccccc2c2cc(-n3nncc3-c3ccccc3)ccc21 [MBQ-167]', 'MRT inf', 'h', 1.03);

* * *

ASSAY_METHOD_TEXT: Tissue distribution after single IP or PO dose
Type: in vivo, BALB/c mice
CONDITIONS_USED: female, BALB/c, mouse, spleen, po, 10 mg/kg
MEASURED_ENDPOINT: MRT inf (h)

INSERT INTO assay_data (structure, data_value) VALUES
  ('CCn1c2ccccc2c2cc(-n3nncc3-c3ccccc3)ccc21', 5.7);

* * *

ASSAY_METHOD_TEXT: Plasma pharmacokinetics after single IP or PO dose
Type: in vivo, Balb/c mice
CONDITIONS_USED: female, BALB/c, mouse, plasma, ip, 10 mg/kg
MEASURED_ENDPOINT: concentration at 30 min (ng/mL)

INSERT INTO results (structure, result_units, data_value) VALUES
  ('CCn1c2ccccc2c2cc(-n3nncc3-c3ccccc3)ccc21', 'ng/mL', 840);

* * *

ASSAY_METHOD_TEXT: Plasma pharmacokinetics after single IP or PO dose
Assay type: in vivo, Balb/c mice
CONDITIONS_USED: female, BALB/c, mouse, plasma, 10 mg/kg
MEASURED_ENDPOINT: clearance

INSERT INTO results (structure, measured_endpoint, data_value) VALUES
  ('CCn1c2ccccc2c2cc(-n3nncc3-c3ccccc3)ccc21', 'clearance', '~5 L/h/kg');

* * *

ASSAY_METHOD_TEXT: Tissue distribution after single IP or PO dose
Type: in vivo, BALB/c mice
CONDITIONS_USED: female, BALB/c, mouse, spleen, ip, 10 mg/kg
MEASURED_ENDPOINT: tissue uptake (%ID/g)

INSERT INTO results (molecule, data_value) VALUES
  ('CCn1c2ccccc2c2cc(-n3nncc3-c3ccccc3)ccc21 [MBQ-167]', 0.81);

* * *

ASSAY_METHOD_TEXT: Plasma pharmacokinetics after single IP or PO dose
Assay type: in vivo, Balb/c mice
CONDITIONS_USED: female, BALB/c, mouse, plasma, po, 10 mg/kg
MEASURED_ENDPOINT: AUC(0-t) (ng·h/mL)

INSERT INTO assay_data (structure, measured_endpoint, data_value) VALUES
  ('CCn1c2ccccc2c2cc(-n3nncc3-c3ccccc3)ccc21', 'AUC(0-t)', 585);

* * *

ASSAY_METHOD_TEXT: Plasma pharmacokinetics after single IP or PO dose
Format: in vivo, Balb/c mice
CONDITIONS_USED: female, BALB/c, mouse, plasma, ip, 10 mg/kg
MEASURED_ENDPOINT: Tmax (min)

INSERT INTO results (structure, data_value) VALUES
  ('CCn1c2ccccc2c2cc(-n3nncc3-c3ccccc3)ccc21', 13.2);

* * *

ASSAY_METHOD_TEXT: Tissue distribution after single IP or PO dose
Assay type: in vivo, BALB/c mice
CONDITIONS_USED: female, BALB/c, mouse, liver, ip, 10 mg/kg
MEASURED_ENDPOINT: half-life (h)

INSERT INTO assay_data (structure, data_value) VALUES
  ('CCn1c2ccccc2c2cc(-n3nncc3-c3ccccc3)ccc21', 2.24);

* * *

ASSAY_METHOD_TEXT: Tissue distribution after single IP or PO dose
Type: in vivo, BALB/c mice
CONDITIONS_USED: female, BALB/c, mouse, heart, ip, 10 mg/kg
MEASURED_ENDPOINT: half-life (min)

INSERT INTO assay_data (compound, measured_endpoint, result_units, data_value) VALUES
  ('CCn1c2ccccc2c2cc(-n3nncc3-c3ccccc3)ccc21 [MBQ-167]', 'half-life', 'min', 58.2);

* * *

ASSAY_METHOD_TEXT: Tissue distribution after single IP or PO dose
Type: in vivo, BALB/c mice
CONDITIONS_USED: female, BALB/c, mouse, kidneys, po, 10 mg/kg
MEASURED_ENDPOINT: k el (s⁻¹)

INSERT INTO results (structure, data_value) VALUES
  ('CCn1c2ccccc2c2cc(-n3nncc3-c3ccccc3)ccc21', '6.67e-05');

* * *

ASSAY_METHOD_TEXT: Tissue distribution after single IP or PO dose
Type: in vivo, BALB/c mice
CONDITIONS_USED: female, BALB/c, mouse, spleen, po, 10 mg/kg
MEASURED_ENDPOINT: Vd/F (L)

INSERT INTO assay_data (structure, data_value) VALUES
  ('CCn1c2ccccc2c2cc(-n3nncc3-c3ccccc3)ccc21', 0.535);

* * *

ASSAY_METHOD_TEXT: Tissue distribution after single IP or PO dose
Format: in vivo, BALB/c mice
CONDITIONS_USED: female, BALB/c, mouse, lungs, po, 10 mg/kg
MEASURED_ENDPOINT: MRT inf (min)

INSERT INTO measurements (structure, result_units, data_value) VALUES
  ('CCn1c2ccccc2c2cc(-n3nncc3-c3ccccc3)ccc21', 'min', 53.4);

* * *

ASSAY_METHOD_TEXT: Tissue distribution after single IP or PO dose
Format: in vivo, BALB/c mice
CONDITIONS_USED: female, BALB/c, mouse, liver, ip, 10 mg/kg, Tmax; IP 10 mg/kg; mean ± SEM
MEASURED_ENDPOINT: Tmax (min)

INSERT INTO assay_data (structure, data_value) VALUES
  ('CCn1c2ccccc2c2cc(-n3nncc3-c3ccccc3)ccc21', 30);

* * *

ASSAY_METHOD_TEXT: Tissue distribution after single IP or PO dose
Assay type: in vivo, BALB/c mice
CONDITIONS_USED: female, BALB/c, mouse, heart, ip, 10 mg/kg
MEASURED_ENDPOINT: MRT inf (min)

INSERT INTO results (compound, measured_endpoint, data_value) VALUES
  ('CCn1c2ccccc2c2cc(-n3nncc3-c3ccccc3)ccc21 [MBQ-167]', 'MRT inf', 58.8);

* * *

ASSAY_METHOD_TEXT: Plasma pharmacokinetics after single IP or PO dose
Type: in vivo, Balb/c mice
CONDITIONS_USED: female, BALB/c, mouse, plasma, ip, 10 mg/kg
MEASURED_ENDPOINT: Cmax (ng/mL)

INSERT INTO results (structure, measured_endpoint, data_value) VALUES
  ('CCn1c2ccccc2c2cc(-n3nncc3-c3ccccc3)ccc21', 'Cmax', 2970);

* * *

ASSAY_METHOD_TEXT: Tissue distribution after single IP or PO dose
Format: in vivo, BALB/c mice
CONDITIONS_USED: female, BALB/c, mouse, lungs, ip, 10 mg/kg
MEASURED_ENDPOINT: Vd/F (L)

INSERT INTO measurements (structure, data_value) VALUES
  ('CCn1c2ccccc2c2cc(-n3nncc3-c3ccccc3)ccc21', 0.201);
